tested on: T1, human Y2 receptor (human, UniProt P49146 1-381)
T1 sequence (looked up): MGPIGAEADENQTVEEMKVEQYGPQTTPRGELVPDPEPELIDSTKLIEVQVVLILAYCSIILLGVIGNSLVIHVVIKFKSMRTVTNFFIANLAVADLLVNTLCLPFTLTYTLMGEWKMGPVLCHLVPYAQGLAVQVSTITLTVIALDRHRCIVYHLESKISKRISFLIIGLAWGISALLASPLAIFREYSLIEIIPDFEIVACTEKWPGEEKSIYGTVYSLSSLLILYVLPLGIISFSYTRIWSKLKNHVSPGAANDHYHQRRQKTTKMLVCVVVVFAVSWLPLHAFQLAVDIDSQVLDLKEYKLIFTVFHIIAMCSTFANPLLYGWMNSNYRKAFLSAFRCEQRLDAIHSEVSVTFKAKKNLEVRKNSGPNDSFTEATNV
test details: cell-based or functional assay
Non-standard residues stand in square brackets, D forms with d. No end group written: not given here. *: point of attachment. Morpholinocarbonyl = O=C(N1CCOCC1)*; Cha = N[C@@H](CC1CCCCC1)C(=O)O; 2Abz = Nc1ccccc1C(=O)O; Aib = CC(C)(N)C(=O)O
value kind: GBA EC50 Ratio (vs PYY(3-36)), [35S]GTPγS (ratio)
Value expressed in ratio; do not type the unit.

[2Abz]RH[Cha]INWITRQR[Cha]-NH2 (N-terminus assumed; SMILES CC[C@H](C)[C@H](NC(=O)[C@H](CC1CCCCC1)NC(=O)[C@H](Cc1c[nH]cn1)NC(=O)[C@H](CCCNC(=N)N)NC(=O)c1ccccc1N)C(=O)N[C@@H](CC(N)=O)C(=O)N[C@@H](Cc1c[nH]c2ccccc12)C(=O)N[C@H](C(=O)N[C@H](C(=O)N[C@@H](CCCNC(=N)N)C(=O)N[C@@H](CCC(N)=O)C(=O)N[C@@H](CCCNC(=N)N)C(=O)N[C@@H](CC1CCCCC1)C(N)=O)[C@@H](C)O)[C@@H](C)CC, also called compound No. 68) [[Abz(2)24, Cha27,36, Ile28,31, Trp30]-PYY(24-36)] :: 15

Then there is this binder:
[Q] Assign GBA EC50 Ratio (vs PYY(3-36)), [35S]GTPγS to the following record: Morpholinocarbonyl-E[dP]RH[Cha][Cha]NL[Aib]TRQR[Cha]-NH2 (SMILES CC(C)C[C@H](NC(=O)[C@H](CC(N)=O)NC(=O)[C@H](CC1CCCCC1)NC(=O)[C@H](CC1CCCCC1)NC(=O)[C@H](Cc1c[nH]cn1)NC(=O)[C@H](CCCNC(=N)N)NC(=O)[C@H]1CCCN1C(=O)[C@H](CCC(=O)O)NC(=O)N1CCOCC1)C(=O)NC(C)(C)C(=O)N[C@H](C(=O)N[C@@H](CCCNC(=N)N)C(=O)N[C@@H](CCC(N)=O)C(=O)N[C@@H](CCCNC(=N)N)C(=O)N[C@@H](CC1CCCCC1)C(N)=O)[C@@H](C)O, also called compound No. 174) [Morpholinocarbonyl-[Glu23, D-Pro24, Cha27,28,36, Aib31]-PYY(23-36)]
[A] 1

Data origin, for the record: patent US20120172293A1
